test system: SOX17 (endoderm marker) in RUES2-GLR cells; experiment: DevTox GLR-Endo assay: decrease in percent SOX17-positive cells (AEID 3094, Sox17_dn); details: Homo sapiens, 48 h
pIC50: −log10 of the molar value.
Each record here notes measured pIC50.

Molecule	pIC50
Nc1cccc2c1C(=O)N(C1CCC(=O)NC1=O)C2=O (stereo not shown) [Pomalidomide]	7.30
CC1=C(/C=C/C(C)=C/C=C/C(C)=C/C(=O)O)C(C)(C)CCC1	6.80
O=C1CCC(N2C(=O)c3ccccc3C2=O)C(=O)N1 (stereo not shown) [Thalidomide]	5.77
Nc1cccc2c1CN(C1CCC(=O)NC1=O)C2=O (stereo not shown) [Lenalidomide]	6.89
